# measurementTarget: Flt-3 (baculovirus expressed human Flt-3 kinase domain R571-S993) (Homo sapiens, UniProt P36888)
# Construct: human Flt-3 kinase domain R571-S993; host or cells: baculovirus expression
# experimentDescription: biochemical
# experimentalParameters: Table 4, inhibition as IC50 class; read-out: flt3 IC50
pIC50: −log10 of the molar value.
experimentalReadout: pIC50

What value of pIC50 has been recorded for this entry: COc1cc2nccc(Oc3ccc(NC(=O)C(=O)NCC(c4ccccc4)N(C)C)cc3F)c2cc1OC (stereo not shown)
> 7.30

What value of pIC50 has been recorded for this entry: COc1cc2c(Oc3ccc(NC(=O)C(=O)NCc4ccc(OC(F)(F)F)cc4)cc3F)ccnc2cc1OCC1CCNCC1
6.30 to 7.30

What value of pIC50 has been recorded for this entry: CC[C@@H](NC(=O)C(=O)Nc1ccc(Oc2ccnc3cc(OCC4CCNCC4)c(OC)cc23)c(F)c1)c1ccccc1
6.30 to 7.30

What value of pIC50 has been recorded for this entry: COc1cc2c(Oc3ccc(NC(=O)C(=O)NCc4cnccn4)cc3F)ccnc2cc1OCC1CCNCC1
6.30 to 7.30

What value of pIC50 has been recorded for this entry: COc1cc2c(Oc3ncc(NC(=O)CC(=O)Nc4ccc(F)cc4)cc3Cl)ccnc2cc1OCCCN1CCOCC1
> 7.30

What value of pIC50 has been recorded for this entry: COc1cc2c(Oc3ccc(NC(=O)C(=O)NCc4ccccc4Cl)cc3F)ccnc2cc1OCC1CCNCC1
> 7.30

What value of pIC50 has been recorded for this entry: COc1cc(CNC(=O)C(=O)Nc2ccc(Oc3ccnc4cc(OCC5CCNCC5)c(OC)cc34)c(F)c2)cc(OC)c1
> 7.30

* * *

# measurementTarget: Flt-3 (baculovirus expressed human Flt-3 kinase domain R571-S993) (Homo sapiens);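 also: Luciferase-coupled chemiluminescent kinase assay, activity read as percent ATP left after a 3 h reaction at room temperature, ATP near KM, 10-point dose-response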
# Construct: human Flt-3 kinase domain R571-S993; host or cells: baculovirus expression
# Sequence (P36888 571-993): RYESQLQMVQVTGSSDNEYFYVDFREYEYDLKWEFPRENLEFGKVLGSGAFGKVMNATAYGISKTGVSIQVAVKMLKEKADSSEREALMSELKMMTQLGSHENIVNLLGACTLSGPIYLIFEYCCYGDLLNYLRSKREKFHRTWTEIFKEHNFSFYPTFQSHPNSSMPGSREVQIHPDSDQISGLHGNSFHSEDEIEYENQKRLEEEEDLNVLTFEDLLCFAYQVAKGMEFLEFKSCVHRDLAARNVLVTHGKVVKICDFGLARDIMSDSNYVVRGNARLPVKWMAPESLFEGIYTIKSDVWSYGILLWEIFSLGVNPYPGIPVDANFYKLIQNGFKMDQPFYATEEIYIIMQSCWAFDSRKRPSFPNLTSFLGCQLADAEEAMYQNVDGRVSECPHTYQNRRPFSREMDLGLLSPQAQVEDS
# experimentDescription: biochemical
# experimentalParameters: Table 4, inhibition as IC50 class; read-out: flt3 IC50
experimentalReadout: IC50

What value of IC50 has been recorded for this entry: COc1cc2c(Oc3ccc(NC(=O)C(=O)NCc4cccc(Cl)c4)cc3F)ccnc2cc1OCC1CCNCC1 [Example 243]
0.05 to 0.5 µM

What value of IC50 has been recorded for this entry: COc1cc2c(Oc3ccc(NC(=O)C(=O)NCCc4ccccc4)cc3F)ncnc2cc1OCC1CCNCC1 [Example 275]
< 0.05 µM

What value of IC50 has been recorded for this entry: COc1cc2c(Oc3ccc(NC(=O)C(=O)NCc4cc(F)cc(C(F)(F)F)c4)cc3F)ccnc2cc1OCC1CCNCC1 [Example 232]
< 0.05 µM

What value of IC50 has been recorded for this entry: COc1cc2c(Oc3ccc(NC(=O)C(=O)N[C@H]4CCCc5ccccc54)cc3F)ccnc2cc1OCC1CCNCC1 [Example 219]
< 0.05 µM

What value of IC50 has been recorded for this entry: COc1cc2c(Oc3ccc(NC(=O)C(=O)NCC(c4ccccc4)c4ccccc4)cc3F)ccnc2cc1OCC1CCNCC1 [Example 227]
< 0.05 µM

What value of IC50 has been recorded for this entry: COc1cc2c(Oc3ccc(NC(=O)C(=O)NCc4ccc(F)c(F)c4)cc3F)ccnc2cc1OCC1CCNCC1 [Example 256]
0.05 to 0.5 µM

What value of IC50 has been recorded for this entry: COc1cc2c(Oc3ccc(NC(=O)C(=O)NCc4ccc(F)c(C(F)(F)F)c4)cc3F)ccnc2cc1OCC1CCNCC1 [Example 216]
< 0.05 µM

* * *

For each of the molecules below, state its IC50.
# measurementTarget: Flt-4 (baculovirus expressed human Flt-4 kinase domain D725-R1298) (Homo sapiens)
# Construct: human Flt-4 kinase domain D725-R1298; host or cells: baculovirus expression
# Sequence (P35916 725-1298 isoform P35916-1): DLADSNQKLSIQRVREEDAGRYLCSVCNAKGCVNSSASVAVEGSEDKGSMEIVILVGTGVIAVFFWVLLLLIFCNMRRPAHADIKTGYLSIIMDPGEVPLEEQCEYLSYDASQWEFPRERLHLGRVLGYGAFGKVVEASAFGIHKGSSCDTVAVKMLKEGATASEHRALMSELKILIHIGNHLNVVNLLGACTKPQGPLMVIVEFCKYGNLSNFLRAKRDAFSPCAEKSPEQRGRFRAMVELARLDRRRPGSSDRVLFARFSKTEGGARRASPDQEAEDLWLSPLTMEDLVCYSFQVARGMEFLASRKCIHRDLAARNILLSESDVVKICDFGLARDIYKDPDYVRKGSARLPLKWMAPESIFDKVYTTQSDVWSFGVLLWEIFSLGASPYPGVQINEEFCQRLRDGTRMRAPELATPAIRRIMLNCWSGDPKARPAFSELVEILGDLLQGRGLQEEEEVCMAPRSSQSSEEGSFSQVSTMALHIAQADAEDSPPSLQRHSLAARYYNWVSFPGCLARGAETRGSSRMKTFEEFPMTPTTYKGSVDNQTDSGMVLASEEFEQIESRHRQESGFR
# experimentDescription: flt-4 Alphascreen Tyrosine Kinase assay;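 also: AlphaScreen chemiluminescence read-out of biotinylated poly(Glu,Tyr) 4:1 phosphorylation via streptavidin donor and PY100 anti-phosphotyrosine acceptor beads, ATP near KM, 1 hr kinase reaction, 10-point dose-response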
# Assay type: biochemical
# experimentalParameters: Table 4, inhibition as IC50 class; read-out: flt4 IC50

What value of IC50 has been recorded for this entry: COc1cc2c(Oc3ccc(NC(=O)C(=O)NCc4c(F)cccc4F)cc3F)ccnc2cc1OCC1CCNCC1 [Example 257]
< 50 nM

What value of IC50 has been recorded for this entry: COc1ccc(CCNC(=O)C(=O)Nc2ccc(Oc3ccnc4cc(OCC5CCNCC5)c(OC)cc34)c(F)c2)cc1 [Example 228]
50 to 500 nM

What value of IC50 has been recorded for this entry: COc1ccc(CCN(C)C(=O)C(=O)Nc2ccc(Oc3ccnc4cc(OCC5CCNCC5)c(OC)cc34)c(F)c2)cc1OC [Example 279]
50 to 500 nM

What value of IC50 has been recorded for this entry: COc1cc2c(Oc3ccc(NC(=O)C(=O)NCCc4ccc(F)cc4)cc3F)ccnc2cc1OCC1CCN(C)CC1 [Example 258]
< 50 nM

What value of IC50 has been recorded for this entry: COc1cc2c(Oc3ccc(NC(=O)C(=O)NCCc4ccccc4)cc3F)ccnc2cc1OCC1CN(C)C1 [Example 250]
< 50 nM

What value of IC50 has been recorded for this entry: COc1cc2c(Oc3ccc(NC(=O)C(=O)NCCc4ccccc4)cc3F)ncnc2cc1OCC1CCN(C)CC1 [Example 276]
< 50 nM

What value of IC50 has been recorded for this entry: COc1ccccc1CNC(=O)C(=O)Nc1ccc(Oc2ccnc3cc(OCC4CCNCC4)c(OC)cc23)c(F)c1 [Example 241]
< 50 nM

What value of IC50 has been recorded for this entry: COc1cc2c(Oc3ccc(NC(=O)C(=O)Nc4ccc(F)c(Cl)c4)cc3F)ccnc2cc1OCC1CCNCC1 [Example 261]
50 to 500 nM

What value of IC50 has been recorded for this entry: CC[C@@H](NC(=O)C(=O)Nc1ccc(Oc2ccnc3cc(OCC4CCNCC4)c(OC)cc23)c(F)c1)c1ccccc1 [Example 254]
50 to 500 nM

What value of IC50 has been recorded for this entry: COc1cc2c(Oc3ccc(NC(=O)C(=O)NCCc4ccc(C)cc4)cc3F)ccnc2cc1OCC1CCNCC1 [Example 271]
50 to 500 nM

What value of IC50 has been recorded for this entry: COc1ccc(Br)cc1CCNC(=O)C(=O)Nc1ccc(Oc2ccnc3cc(OCC4CCNCC4)c(OC)cc23)c(F)c1 [Example 280]
< 50 nM

What value of IC50 has been recorded for this entry: COc1cc2c(Oc3ccc(NC(=O)C(=O)NCc4cccc(OC(F)(F)F)c4)cc3F)ccnc2cc1OCC1CCNCC1 [Example 240]
< 50 nM

What value of IC50 has been recorded for this entry: COc1cc2c(Oc3ccc(NC(=O)C(=O)N[C@@H]4CCCc5ccccc54)cc3F)ccnc2cc1OCC1CCNCC1 [Example 218]
< 50 nM

What value of IC50 has been recorded for this entry: COc1cc2c(Oc3ccc(NC(=O)C(=O)NCc4ccccc4OC(F)(F)F)cc3F)ccnc2cc1OCC1CCNCC1 [Example 244]
< 50 nM

* * *

# measurementTarget: KDR (baculovirus expressed human KDR kinase domain D807-V1356) (Homo sapiens, UniProt P35968);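 also: Luciferase-coupled chemiluminescent kinase assay, activity read as percent ATP left after 4 h reaction at ambient temperature, ATP near KM, 10-point dose-response in 384-well plates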
# Construct: human KDR kinase domain D807-V1356; host or cells: baculovirus expression
# Sequence (P35968 807-1356): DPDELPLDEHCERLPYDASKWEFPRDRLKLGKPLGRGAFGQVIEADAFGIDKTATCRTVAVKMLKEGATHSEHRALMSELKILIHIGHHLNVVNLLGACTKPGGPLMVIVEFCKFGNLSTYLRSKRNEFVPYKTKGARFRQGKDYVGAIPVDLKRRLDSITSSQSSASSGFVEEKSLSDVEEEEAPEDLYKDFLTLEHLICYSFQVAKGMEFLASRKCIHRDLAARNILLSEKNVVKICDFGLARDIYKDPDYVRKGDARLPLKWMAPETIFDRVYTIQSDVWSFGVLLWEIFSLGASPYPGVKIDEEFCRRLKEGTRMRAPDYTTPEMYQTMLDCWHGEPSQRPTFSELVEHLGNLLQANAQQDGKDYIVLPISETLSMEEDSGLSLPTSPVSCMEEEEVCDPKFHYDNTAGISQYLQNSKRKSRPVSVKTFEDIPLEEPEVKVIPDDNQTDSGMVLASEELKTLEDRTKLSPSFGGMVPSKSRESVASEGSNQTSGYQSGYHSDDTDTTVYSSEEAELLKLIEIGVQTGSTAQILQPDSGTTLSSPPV
# experimentDescription: biochemical
# experimentalParameters: Table 4, inhibition as IC50 class
For each of the molecules below, state its IC50.

What value of IC50 has been recorded for this entry: CC[C@H](NC(=O)C(=O)Nc1ccc(Oc2ccnc3cc(OCC4CCNCC4)c(OC)cc23)c(F)c1)c1ccccc1 [Example 255]
50 to 500 nM

What value of IC50 has been recorded for this entry: COc1cc2c(Oc3ccc(NC(=O)C(=O)NCC(c4ccccc4)c4ccccc4)cc3F)ccnc2cc1OCC1CCNCC1 [Example 227]
50 to 500 nM

What value of IC50 has been recorded for this entry: COc1cc2c(Oc3ccc(NC(=O)C(=O)NCc4ccccc4OC(F)(F)F)cc3F)ccnc2cc1OCC1CCNCC1 [Example 244]
< 50 nM

What value of IC50 has been recorded for this entry: COc1cc2c(Oc3ccc(NC(=O)C(=O)NCc4cc(F)cc(F)c4)cc3F)ccnc2cc1OCC1CCNCC1 [Example 233]
< 50 nM

What value of IC50 has been recorded for this entry: COc1cc2c(Oc3ccc(NC(=O)C(=O)NCCC(C)C)cc3F)ccnc2cc1OCC1CCNCC1 [Example 263]
50 to 500 nM

What value of IC50 has been recorded for this entry: COc1cc(CNC(=O)C(=O)Nc2ccc(Oc3ccnc4cc(OCC5CCNCC5)c(OC)cc34)c(F)c2)cc(OC)c1 [Example 269]
< 50 nM

What value of IC50 has been recorded for this entry: COc1cc2nccc(Oc3ncc(NC(=O)CC(=O)N(C)c4ccc(F)cc4)cc3Cl)c2cc1OC [Example 253]
500 to 5000 nM
